- tested target: Cytochrome P450 2C19 (Homo sapiens)
- assay explanation: qHTS for inhibitors of CYP2C19 against the NCATS DSHEA and TCM libraries (AID 1919974);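 also: luminescence from luciferin released by CYP2C19 oxidation of a pro-luciferin substrate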
- measurement conditions: CYP2C19 enzyme inhibition, luminescence qHTS; series mostly up to 34.1 µM
Records with an inconclusive call do not appear. Active and inactive are the calls of the source. Calls follow the shape of the dose curve; as a rule, active = well fitted inhibition curve with a large enough effect; inconclusive = small, poorly fitted or top-dose-only effect; inactive = no such curve, though single readings can be large or run the other way.
Would you mind answering with one of these outcomes? active, inactive

Before answering, review these 2 worked examples.
[
  {
    "molecule": "CC/C=C\\C/C=C\\C/C=C\\C/C=C\\C/C=C\\CCCC(=O)O",
    "class name": "inactive"
  },
  {
    "molecule": "O=C(O)/C=C/c1ccccc1",
    "class name": "inactive"
  }
]

Query: Outcome? `CC(C)=CCC/C(C)=C/C=C/C(C)=C/C=C/C(C)=C/C=C/C=C(C)/C=C/C=C(C)/C=C/C=C(\C)CCC=C(C)C`
Result: inactive

Query: Outcome? `COC1=C(OC)C(=O)C(C/C=C(\C)CC/C=C(\C)CC/C=C(\C)CC/C=C(\C)CC/C=C(\C)CC/C=C(\C)CC/C=C(\C)CC/C=C(\C)CC/C=C(\C)CCC=C(C)C)=C(C)C1=O`
Result: inactive

Query: Outcome? `C=C1CC[C@H](O)CC1=C/C=C1\CCC[C@]2(C)[C@@H]([C@H](C)/C=C/[C@H](C)C(C)C)CC[C@@H]12`
Result: active

###

- assay explanation: Cell Viability - Jurkat (AID 426);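 also: potency is read from the fitted curve at half-maximal effect; cells exposed to compound for 40 hours at 37 °C before ATP read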
- measurement conditions: qHTS
Inconclusive results are not listed. Active and inactive are the calls of the source.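 How the source made its calls: active means dose-dependent loss of cell ATP signal giving a full or clear fitted curve, ranked by lower potency value; inconclusive means weak partial curve or response only at the top dose; inactive means no loss of viability signal.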
recorded metric: Potency

Below are worked cases with known answers.
[
  {
    "compound": "Cc1ncc[nH]1",
    "Potency": "> 92 µM (inactive)"
  },
  {
    "compound": "C/C=C/C=C/C(=O)O",
    "Potency": "> 92 µM (inactive)"
  },
  {
    "compound": "C[C@H](CCC(=O)O)[C@H]1CC[C@H]2[C@@H]3CC[C@@H]4C[C@H](O)CC[C@]4(C)[C@H]3C[C@H](O)[C@]12C",
    "Potency": "> 92 µM (inactive)"
  },
  {
    "compound": "OCc1ccccc1",
    "Potency": "> 92 µM (inactive)"
  },
  {
    "compound": "CC1=CCC2CC1C2(C)C (stereo not given)",
    "Potency": "> 92 µM (inactive)"
  }
]

Query: Any idea what Potency was measured for `CCOC(C)OCC` ?
Result: > 92 µM (inactive)

Query: Any idea what Potency was measured for `CCCCO` ?
Result: > 92 µM (inactive)

###

- Test system: CP315
- assay explanation: qHTS profiling for inhibitors of Plasmodium falciparum proliferation (AID 504749); also: nearly all actives have a fitted effect of over 60% in size
- measurement conditions: P. falciparum in erythrocytes, SYBR Green DNA, 72 h; series mostly up to 28.7 µM
Inconclusive results are not listed. Active and inactive are the calls of the source. Calls follow the shape of the dose curve; as a rule, active = well fitted inhibition curve with a large enough effect; inconclusive = small, poorly fitted or top-dose-only effect; inactive = flat fitted curve, though single readings scatter.
Would you mind answering with one of these outcomes? active, inactive

Before answering, review these 6 worked examples.
[
  {
    "compound": "O=P(O)(O)OC[C@H](O)CO",
    "class name": "inactive"
  },
  {
    "compound": "COc1ccc2c(=O)c(C)c(-c3ccccc3)oc2c1CN(C)C",
    "class name": "inactive"
  },
  {
    "compound": "CC1=CC(=C(c2ccc(N)cc2)c2ccc(N)cc2)C=CC1=N",
    "class name": "active"
  },
  {
    "compound": "CO",
    "class name": "inactive"
  },
  {
    "compound": "O=[N+]([O-])c1c(Cl)cccc1-c1c[nH]cc1Cl",
    "class name": "inactive"
  },
  {
    "compound": "COc1ccc(/C=C/C(=O)OCCC(C)C)cc1",
    "class name": "inactive"
  }
]

Query: Outcome? `Oc1cccc(O)c1O`
Result: inactive

Query: Outcome? `COc1ccc(C(=O)CCC(=O)O)c2ccccc12`
Result: inactive

Query: Outcome? `C[C@H](CCCC(C)(C)O)[C@H]1CC[C@H]2[C@@H]3CC=C4C[C@@H](O)CC[C@]4(C)[C@H]3CC[C@]12C`
Result: inactive
